targetSystem: Grb2 SH2 (UniProt P62993)
Sequence (P62993 whole entry, looked up): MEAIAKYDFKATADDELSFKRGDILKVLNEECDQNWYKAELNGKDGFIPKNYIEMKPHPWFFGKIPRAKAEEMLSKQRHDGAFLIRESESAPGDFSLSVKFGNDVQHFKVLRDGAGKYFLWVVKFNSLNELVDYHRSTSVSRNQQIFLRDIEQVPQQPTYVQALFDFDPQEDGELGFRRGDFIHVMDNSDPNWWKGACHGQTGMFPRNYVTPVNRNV
testSummary: SH2 binding enrichment of the phosphorylated peptide, bacterial display (enrichment ratio); higher = better substrate or ligand; peptides without Tyr show the background
valueType: SH2 binding enrichment

- entrySequence: "EQKKYSNAMKK [SCN5A_Y1495_Y1495S]"
  assayResult: 0.868
- entrySequence: "SAASGYSDVTD [DTX2_Y425_T421A]"
  assayResult: 1.98
- entrySequence: "SGDVQYRSSVR [FREM2_Y2158_T2153S]"
  assayResult: 0.812
- entrySequence: "AHLTEYLSTHF [UQCRC1_Y219_D215H_YF]"
  assayResult: 0.811
- entrySequence: "CEHRGYLYLAI [TEK_Y897]"
  assayResult: 1.21
- entrySequence: "GVRYIYTIDGS [DCX_Y105]"
  assayResult: 0.943
- entrySequence: "EEEPVYEAEPE [HCLS1_Y360]"
  assayResult: 0.831
- entrySequence: "NFDRIYIYHLR [MYOF_Y1137_V1136I]"
  assayResult: 1.39
- entrySequence: "RSRSPYSPVLR [CDK13_Y399]"
  assayResult: 1.2
- entrySequence: "RASGIYYVPKG [APBB1IP_Y340]"
  assayResult: 1.1
- entrySequence: "SGPRRYTMAAL [TTR_Y125_I127M]"
  assayResult: 0.787
- entrySequence: "QPSPSYDSSRG [TCF12_Y70]"
  assayResult: 0.773
- entrySequence: "DEYLEYRRIVG [FAM221A_Y20]"
  assayResult: 1.03
- entrySequence: "PVQAAYKKVVA [HBB_Y131_Q132K]"
  assayResult: 0.834
- entrySequence: "EGDGVYTLNDE [HP_Y125_N129D]"
  assayResult: 0.872
- entrySequence: "DFSLKYATDIP [APC_Y1183_YF]"
  assayResult: 0.781
- entrySequence: "AAQNCYKVTNG [TPI1_Y105]"
  assayResult: 0.852
- entrySequence: "LGSNTYPFLLM [SAG_Y120_T125M]"
  assayResult: 0.808
- entrySequence: "LNLDTYQKRLR [PLA2G2D_Y126_R121L]"
  assayResult: 0.797

* * *

Tested on: Fer (mouse);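 also: 11-residue human phosphosite peptides and single-mutation variants displayed on the E. coli surface, counted by deep sequencing, each peptide's frequency after selection divided by its frequency in the unselected input library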;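 also: frequency after pTyr selection over input frequency; kinase dosed for 20-30% of maximal phosphorylation in three min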
testSummary: phosphorylation enrichment, bacterial display (enrichment ratio); higher = better substrate or ligand; peptides without Tyr show the background

- entrySequence: "IVAREYYSDAD [CAMK2A_Y106_E109D]"
  phosphorylation enrichment: 0.589
- entrySequence: "DEWFLYKMRDI [CPS1_Y879_K875E]"
  phosphorylation enrichment: 0.586
- entrySequence: "ARGMEYLAEQK [MST1R_Y1198_G1195S]"
  phosphorylation enrichment: 0.384
- entrySequence: "IDDNEYAFLKA [HNF4A_Y286_YF]"
  phosphorylation enrichment: 0.659
- entrySequence: "SDYYAYSPVQE [H6PD_Y449_R453Q]"
  phosphorylation enrichment: 10.7
- entrySequence: "DASAVYLHDFQ [PLCG2_Y242]"
  phosphorylation enrichment: 0.474
- entrySequence: "EIRTQYEVMAS [GFAP_Y242_A244V]"
  phosphorylation enrichment: 0.49
- entrySequence: "IQKKYYRAILE [CHD7_Y1218]"
  phosphorylation enrichment: 0.384
- entrySequence: "NRLTDYFELLL [BBS10_Y536_P539L_YF]"
  phosphorylation enrichment: 0.534
